molecular target: plasminogen
Measured attribute: plasminogenolytic activity (PAU/mg) (PAU/mg (single chain))
One number for each entry.

// worked examples, plasminogenolytic activity (PAU/mg) (PAU/mg (single chain)) included
Q) I am curious: what plasminogenolytic activity (PAU/mg) (PAU/mg (single chain)) value has been reported for Variant mt-PA6 (mt-PA6-V) (enzyme, glycosylated at amino acids 276 and 12) SYQGNSDCYFGNGSAYRGTHSLTESGASCLPWNSMILIGKVYTAQNPSAQALGLGKHNYCRNPDGDAKPWCHVLKNRRLTWEYCDVPSCSTCGLRQYSQPQFRIKGGLFADIASHPWQAAIFAKHRRSPGERFLCGGILISSCWILSAAHCFQERFPPHHLTVILGRTYRVVPGEEEQKFEVEKYIVHKEFDDDTYDNDIALLQLKSDSSRCAQESSVVRTVCLPPADLQLPDWTECELSGYGKHEALSPFYSERLKEAHVRLYPSSRCTSQHLLNRTVTDNMLCAGDTRSGGPQANLHDACQGDSGGPLVCLNDGRMTLVGIISWGLGCGQKDVPGVYTKVTNYLDWIRDNMRP ?
A) 56

Q) // same read-out, input: mt-PA6-E (enzyme, diglycosylated: alternate glycosylation consensus sequence at the amino acids surrounding position 48 (equivalent to amino acid 219 of t-PA) in Kringle 2 (claim 2: monoglycosylated at amino acid residue number 47), and the glycosylation consensus sequence within the Serine Protease domain) SYQGNSDCYFGQGSAYRGTHSLTESGASCLPWNSMILIGKVYTAQNGSAQALGLGKHNYCRNPDGDAKPWCHVLKNRRLTWEYCDVPSCSTCGLRQYSQPQFRIKGGLFADIASHPWQAAIFAKHRRSPGERFLCGGILISSCWILSAAHCFQERFPPHHLTVILGRTYRVVPGEEEQKFEVEKYIVHKEFDDDTYDNDIALLQLKSDSSRCAQESSVVRTVCLPPADLQLPDWTECELSGYGKHEALSPFYSERLKEAHVRLYPSSRCTSQHLLNRTVTDNMLCAGDTRSGGPQANLHDACQGDSGGPLVCLNDGRMTLVGIISWGLGCGQKDVPGVYTKVTNYLDWIRDNMRP
A) 59

***
Q) I am curious: what plasminogenolytic activity (PAU/mg) (PAU/mg (single chain)) value has been reported for Primary mt-PA6 (mt-PA6-P) (enzyme, glycosylated at amino acid 276 but not at amino acid 12) SYQGNSDCYFGNGSAYRGTHSLTESGASCLPWNSMILIGKVYTAQNPSAQALGLGKHNYCRNPDGDAKPWCHVLKNRRLTWEYCDVPSCSTCGLRQYSQPQFRIKGGLFADIASHPWQAAIFAKHRRSPGERFLCGGILISSCWILSAAHCFQERFPPHHLTVILGRTYRVVPGEEEQKFEVEKYIVHKEFDDDTYDNDIALLQLKSDSSRCAQESSVVRTVCLPPADLQLPDWTECELSGYGKHEALSPFYSERLKEAHVRLYPSSRCTSQHLLNRTVTDNMLCAGDTRSGGPQANLHDACQGDSGGPLVCLNDGRMTLVGIISWGLGCGQKDVPGVYTKVTNYLDWIRDNMRP ?
A) 87
